Form field: folding stability dG (one value per entry).
B1: EHEE_rd2_0196 (parent)
chain: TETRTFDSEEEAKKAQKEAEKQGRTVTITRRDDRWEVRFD

# Variants of: B1
# assay_notes: folding stability dG (cDNA display proteolysis); higher = more stable
# settings: PBS, room temperature
Record the value in kcal/mol, omitting the unit from your answer.

Example entries begin here.
[
  {
    "variant_id": "Q22L",
    "folding stability dG [kcal/mol]": 3.19
  },
  {
    "variant_id": "D32R",
    "folding stability dG [kcal/mol]": 2.48
  },
  {
    "variant_id": "F39E",
    "folding stability dG [kcal/mol]": 2.52
  },
  {
    "variant_id": "E2K",
    "folding stability dG [kcal/mol]": 2.86
  },
  {
    "variant_id": "D7W",
    "folding stability dG [kcal/mol]": 3.19
  },
  {
    "variant_id": "R31S",
    "folding stability dG [kcal/mol]": 2.29
  }
]

Query string: Entry Q22S needs its folding stability dG filled in; supply it.
Result string: 2.92

Query string: Entry E11N needs its folding stability dG filled in; supply it.
Result string: 1.96

Query string: Entry E9F needs its folding stability dG filled in; supply it.
Result string: 3.42

Query string: Entry S8I needs its folding stability dG filled in; supply it.
Result string: 1.77

Query string: Entry R4N needs its folding stability dG filled in; supply it.
Result string: 2.11

Query string: Entry T29R needs its folding stability dG filled in; supply it.
Result string: 2.76

Query string: Entry G23I needs its folding stability dG filled in; supply it.
Result string: 0.786

Query string: Entry A19G needs its folding stability dG filled in; supply it.
Result string: 2.75

Query string: Entry E9V needs its folding stability dG filled in; supply it.
Result string: 2.25

Query string: Entry E20P needs its folding stability dG filled in; supply it.
Result string: 0.742

Query string: Entry R24D needs its folding stability dG filled in; supply it.
Result string: 2.29

Query string: Entry D32N needs its folding stability dG filled in; supply it.
Result string: 3.29
